Hey, just so you know, these numbers are from patent US10189788B2.

- target_under_test: Human FP Receptor (Homo sapiens (Human), UniProt P43088)
- Sequence (P43088 whole entry): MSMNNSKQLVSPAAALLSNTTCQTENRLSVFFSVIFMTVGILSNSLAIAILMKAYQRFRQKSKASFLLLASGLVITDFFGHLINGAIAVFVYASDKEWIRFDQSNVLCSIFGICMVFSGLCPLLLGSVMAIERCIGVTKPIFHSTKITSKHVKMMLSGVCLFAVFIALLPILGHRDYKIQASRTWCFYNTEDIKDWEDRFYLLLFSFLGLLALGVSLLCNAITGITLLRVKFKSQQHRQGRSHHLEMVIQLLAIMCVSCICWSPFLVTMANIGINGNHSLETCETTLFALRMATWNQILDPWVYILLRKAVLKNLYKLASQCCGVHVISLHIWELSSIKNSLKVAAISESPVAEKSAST
- experiment: In vitro test of inhibition of human FP receptor activity, variant B-1A (PGF2α-induced calcium flux in FP-expressing CHEM1 cells)
- Type: cell-based
- condition_description: calcium flux induced by 3 nM PGF2α, Fluo-8, some mean values from multiple determinations
Each entry below carries its reported log10 IC50.
observation_type: log10 IC50 (log10 of the value in µM)

# compound, target_under_test, log10 IC50
rows = [
    ("Cc1c(-c2ccccc2)nc2ccc(F)cc2c1C(=O)Nc1ccc(C(=O)O)cc1F [Example 29]", "Human FP Receptor (Homo sapiens (Human), UniProt P43088)", -0.05),
    ("Cc1c(-c2ccccc2)nc2c(C)cc(Br)cc2c1C(=O)Nc1ccc(C(=O)O)cc1 [Example 58]", "Human FP Receptor (Homo sapiens (Human), UniProt P43088)", -0.25),
    ("COc1c(-c2ccccc2)nc2ccc(Br)cc2c1C(=O)Nc1ccc(C(=O)O)cc1F [Example 74]", "Human FP Receptor (Homo sapiens (Human), UniProt P43088)", -0.66),
    ("Cc1c(-c2ccccc2)nc2ccc(Br)cc2c1C(=O)Nc1c(F)cc(C(=O)O)cc1F [Example 12]", "Human FP Receptor (Homo sapiens (Human), UniProt P43088)", -1.66),
    ("Cc1c(-c2ccccc2)nc2ccc(C(C)(C)C)cc2c1C(=O)Nc1ccc(C(=O)O)cc1F [Example 61]", "Human FP Receptor (Homo sapiens (Human), UniProt P43088)", -0.88),
    ("CCc1ccc2nc(-c3ccccc3)c(C)c(C(=O)Nc3ccc(C(=O)O)cc3F)c2c1 [Example 32]", "Human FP Receptor (Homo sapiens (Human), UniProt P43088)", -0.61),
    ("Cc1c(-c2ccccc2)nc2ccc(Br)cc2c1C(=O)Nc1ccc(C(=O)O)cc1 [Example 1]", "Human FP Receptor (Homo sapiens (Human), UniProt P43088)", -0.78),
    ("CCc1c(-c2ccccc2)nc2ccc(Br)cc2c1C(=O)Nc1ccc(C(=O)O)cc1F [Example 39]", "Human FP Receptor (Homo sapiens (Human), UniProt P43088)", -0.72),
    ("CC(=O)Nc1cc(C(=O)O)ccc1NC(=O)c1c(C)c(-c2ccccc2)nc2ccc(Br)cc12 [Example 19]", "Human FP Receptor (Homo sapiens (Human), UniProt P43088)", -0.19),
    ("Cc1c(-c2ccccc2)nc2ccc(Br)cc2c1C(=O)Nc1ccc(C(=O)O)cc1Br [Example 10]", "Human FP Receptor (Homo sapiens (Human), UniProt P43088)", -1.39),
    ("COCSc1cc(C(=O)O)ccc1NC(=O)c1c(C)c(-c2ccccc2)nc2ccc(Br)cc12 [Example 52]", "Human FP Receptor (Homo sapiens (Human), UniProt P43088)", -1.77),
    ("Cc1c(-c2ccccc2)nc2ccc(Br)cc2c1C(=O)Nc1c(Cl)cc(C(=O)O)cc1Cl [Example 13]", "Human FP Receptor (Homo sapiens (Human), UniProt P43088)", -0.82),
    ("Cc1c(-c2ccccc2)nc2ccc(Br)cc2c1C(=O)Nc1ccc(C(=O)O)cc1F [Example 69]", "Human FP Receptor (Homo sapiens (Human), UniProt P43088)", -0.98),
    ("Cc1c(-c2ccccc2)nc2ccc(I)cc2c1C(=O)Nc1ccc(C(=O)O)cc1F [Example 30]", "Human FP Receptor (Homo sapiens (Human), UniProt P43088)", -2.22),
    ("Cc1ccc2nc(-c3ccccc3)c(C)c(C(=O)Nc3ccc(C(=O)O)cc3F)c2c1 [Example 31]", "Human FP Receptor (Homo sapiens (Human), UniProt P43088)", -0.78),
    ("Cc1c(-c2ccccc2)nc2ccc(Br)cc2c1C(=O)Nc1ccc(C(=O)O)cc1S(=O)(=O)C(F)(F)F [Example 53]", "Human FP Receptor (Homo sapiens (Human), UniProt P43088)", -1.51),
]
